B1: IMPA1 (parent)
chain: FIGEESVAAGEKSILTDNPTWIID

Variants of: B1
Protocol Summary: protein stability index of a GFP-peptide fusion (GPS, HEK-293T) (PSI 1-6); higher = more stable;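 further: lentivirally expressed fusions sorted by FACS into six bins by GFP to DsRed ratio, PSI derived from sequencing read proportions per bin multiplied by bin number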
Experimental Context: c terminus: a fixed tail appended
Criterion: protein stability index meeting or surpassing 2. Met: rule met. Not met: rule not met.

- Mut: "N18I"
  Cat: "rule met"

# ---- query variant ----
QUERY: Textbook exercise: given the entry `V7R` , state whether its protein stability index is greater than or equal to 2.
RESULT: rule not met
